# Tested on: rat thoracic aorta
# Test Name: Rat aortic contraction caused by norepinephrine and high potassium (KCl)
# Assay type: cell-based, Wistar rat
# Assay Conditions: K+ (80 mM); tonic; conc 10 μM; 15 min
Property Measured: K+ contraction (%), Tonic

- COc1ccc(CC(C)C(C)C(=O)c2ccc(OC)c(OC)c2)cc1OC (centres unmarked): 10.5
- COc1cc(C[C@@H](C)[C@@H](C)Cc2ccc(O)c(OC)c2)ccc1O [Compound 2, meso-dihydroguaiaretic acid, reference compound]: 14.8
- COc1cc(CC(C)C(C)C(=O)c2ccc(OC(C)=O)c(OC)c2)ccc1OC(C)=O (centres unmarked): 18.4
- COc1cc(CC(C)C(C)C(=O)c2ccc(O)c(OC)c2)ccc1O (centres unmarked): 5.2
- COc1cc(CC(C)C(C)C(O)c2ccc(O)c(OC)c2)ccc1O (centres unmarked): 66.8

---

# System: rabbit platelets
# Test Name: Aggregation of washed rabbit platelet suspension induced by AA, PAF, collagen, U-46619, ADP and thrombin
# Type: cell-based
# Assay Conditions: inducer AA (100 μM); conc 20 μM; control 92.1 ± 1.3
# Method: A. Preparation of aggregation inducing agent 1. Collagen (bovine tendon) in 15 mM aqueous acetic acid was homogenized at 4° C. to form a well dispersed suspension in 1 mg/ml and stocked at -70° C. Before using, it was thawed and well homogenized. 2. […] The method reported by Born (J. Physiol. 168, 178, 1963) was used to determine the platelet aggregation by a Lumi-aggregometer (Model 1020, Payton, Canada). […] The aggregation was calculated by following formula: […]
Documented Aggregation (%) across a set of compounds
Property Measured: Aggregation (%)

• COc1ccc(CC(C)C(C)C(=O)c2ccc(OC)c(OC)c2)cc1OC (centres unmarked) = 87.8
• COc1cc(CC(C)C(C)C(=O)c2ccc(OC(C)=O)c(OC)c2)ccc1OC(C)=O (centres unmarked) = 86.3
• COc1cc(C[C@@H](C)[C@@H](C)Cc2ccc(O)c(OC)c2)ccc1O [Compound 2, meso-dihydroguaiaretic acid, reference compound] = 0.0
• COc1cc(CC(C)C(C)C(O)c2ccc(O)c(OC)c2)ccc1O (centres unmarked) = 86.3
• COc1cc(CC(C)C(C)C(=O)c2ccc(O)c(OC)c2)ccc1O (centres unmarked) = 42.4

---

# Test system: rabbit platelets
# Test Name: Aggregation of washed rabbit platelet suspension induced by AA, PAF, collagen, U-46619, ADP and thrombin
# Type: cell-based
# Assay Conditions: inducer ADP (20 μM); conc 300 μM; control 81.6 ± 3.0
Property Measured: Aggregation (%)

• COc1cc(CC(C)C(C)C(=O)c2ccc(O)c(OC)c2)ccc1O (centres unmarked) = 75.6
• COc1cc(CC(C)C(C)C(O)c2ccc(O)c(OC)c2)ccc1O (centres unmarked) = 77.3
• COc1cc(CC(C)C(C)C(=O)c2ccc(OC(C)=O)c(OC)c2)ccc1OC(C)=O (centres unmarked) = 60.7
• COc1ccc(CC(C)C(C)C(=O)c2ccc(OC)c(OC)c2)cc1OC (centres unmarked) = 30.7
• COc1cc(C[C@@H](C)[C@@H](C)Cc2ccc(O)c(OC)c2)ccc1O [Compound 2, meso-dihydroguaiaretic acid, reference compound] = 67.9

---

# Test system: human platelet-rich plasma
# Test Name: Aggregation test of human platelet-rich plasma
# Assay type: cell-based
# Assay Conditions: Homo sapiens, Platelet, human platelet-rich plasma; inducer ADP 5 μM; First Phrase; read-out: IC50, platelet aggregation, first phase
Property Measured: IC50

• COc1cc(CC(C)C(C)C(=O)c2ccc(O)c(OC)c2)ccc1O (stereo not shown) [Compound 1, cinnamophilin] = > 30 µM
